- TARGET UNDER TEST: T1, DLG3_3, Q92796
- T1 sequence (Q92796 374-475, limits assumed, looked up): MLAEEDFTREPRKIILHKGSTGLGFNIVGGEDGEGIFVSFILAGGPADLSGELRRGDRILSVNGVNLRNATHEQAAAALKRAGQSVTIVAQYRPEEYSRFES
- PROTOCOL SUMMARY: holdup assay
- Design: key: below the threshold = too weak to quantify, mostly under pKd 3.1 to 4
- CONDITION INFO: plain residues with an end cap or a label only (N-terminal biotin on a linker: ttds)

BINDER | pKd
SSIDLWETAL [SLC15A5, A6NIM6] | 3.8
PSRDRKETSI [RALBP1, Q15311] | 4.77
GARVSKETPL [MAPK12, P53778] | 4.01
SRSRRRETAL [HPV33-E6, P06427] | 5.07
KLVIKTETTV [RASSF6, Q6ZTQ3] | 4.43
SGGKRKETLV [NET1, Q7Z628] | 5.05
